- study system: T1, alpha-s1 casein from Bos taurus
- T1 chain: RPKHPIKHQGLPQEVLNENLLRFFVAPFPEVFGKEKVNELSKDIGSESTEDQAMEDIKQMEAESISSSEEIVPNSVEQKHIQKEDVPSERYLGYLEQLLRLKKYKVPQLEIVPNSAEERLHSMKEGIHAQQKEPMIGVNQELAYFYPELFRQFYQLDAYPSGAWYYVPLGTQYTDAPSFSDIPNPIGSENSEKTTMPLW
Answer each item with its documented αs1-I CN, 16 hours, 30° C..
Provide the reading as a plain figure in Volume.

Q: I would be grateful if you could share the reported αs1-I CN, 16 hours, 30° C. for Maxiren (recombinant wild-type calf chymosin B) (protein) GEVASVPLTNYLDSQYFGKIYLGTPPQEFTVLFDTGSSDFWVPSIYCKSNACKNHQRFDPRKSSTFQNLGKPLSIHYGTGSMQGILGYDTVTVSNIVDIQQTVGLSTQEPGDVFTYAEFDGILGMAYPSLASEYSIPVFDNMMNRHLVAQDLFSVYMDRNGQESMLTLGAIDPSYYTGSLHWVPVTVQQYWQFTVDSVTISGVVVACEGGCQAILDTGTSKLVGPSSDILNIQQAIGATQNQYGEFDIDCDNLSYMPTVVFEINGKMYPLTPSAYTSQDQGFCTSGFQSENHSQKWILGDVFIREYYSVFDRANNLVGLAKAI .
Ans: 600000

Q: Consider the protein shown here: Chymax M (recombinant camel chymosin) (protein) GKVAREPLTSYLDSQYFGKIYIGTPPQEFTVVFDTGSSDLWVPSIYCKSNVCKNHHRFDPRKSSTFRNLGKPLSIHYGTGSMEGFLGYDTVTVSNIVDPNQTVGLSTEQPGEVFTYSEFDGILGLAYPSLASEYSVPVFDNMMDRHLVARDLFSVYMDRNGQGSMLTLGAIDPSYYTGSLHWVPVTLQQYWQFTVDSVTINGVAVACVGGCQAILDTGTSVLFGPSSDILKIQMAIGATENRYGEFDVNCGNLRSMPTVVFEINGRDYPLSPSAYTSKDQGFCTSGFQGDNNSELWILGDVFIREYYSVFDRANNRVGLAKAI What is its recorded αs1-I CN, 16 hours, 30° C.?
Ans: 4.3e+06

Q: Need αs1-I CN, 16 hours, 30° C., item bovine chymosin B variant #98 (A51V, K221V, S135T, A126G, S273Y, Q240E) (protein) GEVASVPLTNYLDSQYFGKIYLGTPPQEFTVLFDTGSSDFWVPSIYCKSNVCKNHQRFDPRKSSTFQNLGKPLSIHYGTGSMQGILGYDTVTVSNIVDIQQTVGLSTQEPGDVFTYAEFDGILGMGYPSLASEYTIPVFDNMMNRHLVAQDLFSVYMDRNGQESMLTLGAIDPSYYTGSLHWVPVTVQQYWQFTVDSVTISGVVVACEGGCQAILDTGTSVLVGPSSDILNIQQAIGATENQYGEFDIDCDNLSYMPTVVFEINGKMYPLTPYAYTSQDQGFCTSGFQSENHSQKWILGDVFIREYYSVFDRANNLVGLAKAI
Ans: 1.96e+07

Q: Tell me the measured αs1-I CN, 16 hours, 30° C. of bovine chymosin B variant #74 (A51V, K221M) (protein) GEVASVPLTNYLDSQYFGKIYLGTPPQEFTVLFDTGSSDFWVPSIYCKSNVCKNHQRFDPRKSSTFQNLGKPLSIHYGTGSMQGILGYDTVTVSNIVDIQQTVGLSTQEPGDVFTYAEFDGILGMAYPSLASEYSIPVFDNMMNRHLVAQDLFSVYMDRNGQESMLTLGAIDPSYYTGSLHWVPVTVQQYWQFTVDSVTISGVVVACEGGCQAILDTGTSMLVGPSSDILNIQQAIGATQNQYGEFDIDCDNLSYMPTVVFEINGKMYPLTPSAYTSQDQGFCTSGFQSENHSQKWILGDVFIREYYSVFDRANNLVGLAKAI , please.
Ans: 1.86e+07

Q: For the protein bovine chymosin B variant #71 (A51V, K221V) (protein) GEVASVPLTNYLDSQYFGKIYLGTPPQEFTVLFDTGSSDFWVPSIYCKSNVCKNHQRFDPRKSSTFQNLGKPLSIHYGTGSMQGILGYDTVTVSNIVDIQQTVGLSTQEPGDVFTYAEFDGILGMAYPSLASEYSIPVFDNMMNRHLVAQDLFSVYMDRNGQESMLTLGAIDPSYYTGSLHWVPVTVQQYWQFTVDSVTISGVVVACEGGCQAILDTGTSVLVGPSSDILNIQQAIGATQNQYGEFDIDCDNLSYMPTVVFEINGKMYPLTPSAYTSQDQGFCTSGFQSENHSQKWILGDVFIREYYSVFDRANNLVGLAKAI , what αs1-I CN, 16 hours, 30° C. is on record?
Ans: 1.97e+07
